- test.target: SARS-CoV-2 N-terminal domain-NTD (residue 1-290) (SARS-CoV-2, Wuhan-Hu-1 (MN908947), UniProt P0DTC2)
- assay.info: BLI

{"binder": "CC9.2 mAb (IgG) (antibody, V domains shown) VH: EVQLVESGGGLVQPGRSLRLSCVAPGFTLGGYGMHWVRQAPGKGLEWVGLISYDGSVQKYGSSVKGRFTISKDNSKNTLYLEMNSLRADDTAVYFCVKGASLGDNWGQGTLVTVSS VL: EIVMTQSPLSLPVTLGQPASISCRSSQSLVYSDGDTYMSWFHQRPGQSPRRLIYKVSNRDFGVPDRFSGSGSGTDFTLKISRVEAEDVGVYYCMQGTHWPYTFGPGTKVEIK", "binding result": "no binding"}
{"binder": "CC9.1 mAb (antibody, V domains shown) VH: EVQLVESGGGLVQPGRSLRLSCVAPGFTLGGYGMHWVRQAPGKGLEWVGLISYDGSVQKYGSSVKGRFTISKDNSKNTLYLEMNSLRADDTAVYFCVKGASLGDNWGQGTLVTVSS VL: EIVMTQSPLSLPVTLGQPASISCRSSQSLVYSDGDTYMSWFHQRPGQSPRRLIYKVSNRDSGVPDRFSGSGSGTDFTLKISRVEAEDVGVYYCMQGTHWPYTFGPGTKVEIK", "binding result": "no binding"}
